System: CCRF-CEM leukemia
Test: NCI tumour cell line growth inhibition, 48 h
The compounds listed here are annotated with their TGI.

Sample answers from the record:
| compound | TGI |
| --- | --- |
| COc1ccc(Br)c2c1CC(C(=O)O)CC2 (centres undefined) | > 100 µM |
| Nc1cc(=O)[nH]c(SC2=NC(N)CC(O)C2)n1 (centres undefined) | > 100 µM |
| O=C(c1ccc(Cl)cc1Cl)N(C(=O)N1CCC(c2ccccc2)CC1)c1ccccc1 | > 100 µM |
| CC12CCC=CC1CCC1C2CCC2(C)C(c3ccc(=O)oc3)CCC12O (centres undefined) | 0.544 µM |
| CC1CC2OC(=O)C3CC(O)CC(=C23)[C@@]12C[C@@H](c1ccoc1)OC2=O (some centres undefined) | > 100 µM |
| CCc1ccc(NC(=O)Nc2c[nH]c3ccccc23)cc1 | > 100 µM |
| O=C1c2ccccc2C(=O)N1CC1(C(=O)O)NCCS1(=O)=O (centres undefined) | > 100 µM |
| CCc1nnc(CC)n1NCCCC(=O)O | > 100 µM |
| CCCCCC(=O)Nc1n[nH]nc1C(N)=O | > 100 µM |
| c1ccc(Nc2nnc(CSc3nc(-c4ccccc4)c(-c4ccccc4)[nH]3)s2)cc1 | 49.1 µM |

Notebook: N#CC(C#N)=Cc1ccc(-c2ccc(-c3nc4ccccc4s3)cc2)o1 , TGI read as 70.6 µM

The value of TGI measured for the compound CSC1=N[C@H](c2ccccc2)CS1 turned out to be > 100 µM

Documented TGI of O=C(CC1Sc2ccccc2NC1=O)Nc1cc(Cl)ccc1Cl (centres undefined) : > 100 µM

====

Tested on: OVCAR-8 ovarian
Experiment: NCI tumour cell line growth inhibition, 48 h
endpoint-name: TGI

Here are 2 molecules together with their reported answers.
| molecule | system-name | reported-measurement |
| --- | --- | --- |
| COC12C=CC(CC1)c1c(O)ccc(O)c12 (stereo unspecified) | OVCAR-8 ovarian | > 70.1 µM |
| O=C1c2cc3c(cc2CC12Cc1cc4c(cc1C2=O)CCCC4)CCCC3 | OVCAR-8 ovarian | > 100 µM |

Pending molecule:
Quick note, TGI for COc1cc(Cn2cc3c(c2)-c2oncc2CC3)cc(OC)c1OC landed at > 100 µM

====

System: UACC-62 melanoma
Assay: NCI tumour cell line growth inhibition, 48 h
Where a SMILES comes first, the peptide text is derived from it. [ ]: non-standard residue; d: D form. Phe(F5) = N[CH](Cc1c(F)c(F)c(F)c(F)c1F)C(=O)O
endpoint-name: TGI

Consider the following illustrative entries.
| molecule | TGI |
| --- | --- |
| CN(C(=O)C12C3C4C1C1C2C3C41I)C(C)(C)C (configuration not stated) | > 100 µM |
| CCOC(=O)c1nc2ccc(C(F)(F)F)cc2nc1NCc1ccc(Cl)c(Cl)c1 | > 100 µM |
| CC1=C(C(=O)OCc2ccccc2)C(c2ccc3c(c2)OCO3)n2c(nc3ccccc32)N1 (configuration not stated) | > 100 µM |
| Cc1nc2sc(CCl)nn2c(=O)c1Cl | 36.2 µM |
| Cc1ccc2c(c1)C1(C)OC(CC(N)C1O)O2 (configuration not stated) | > 100 µM |
| CCOC(=O)C=C1CCN(C(=O)c2ccccc2)CC1 | > 100 µM |
| C=CCC(N[C@H](CO)C(C)C)c1cn(C(=O)OCC)c2ccccc12 (some centres not stated) | 54.8 µM |
| COc1ccc(C2c3cc4c(cc3C(O)C3CCC(=O)N23)OCO4)cc1 (configuration not stated) | > 100 µM |

Briefly, TGI measured for O=C(CCl)c1ccc([N+](=O)[O-])o1 : 5.62 µM

So for CC(C)=CCOc1cc(NC(=S)c2ccoc2C)ccc1Cl , the logged TGI turned out to be > 100 µM

// sample COC(=O)[C@@H]1CSC(=S)N1C(=O)C[C@H]1CC=CC[C@H]1CC(=O)Sc1ccccc1 , its TGI was 38.3 µM

So, CC(=O)OC1c2ccccc2CC2(OC(C)=O)c3ccccc3C12 (configuration not stated) ? Its TGI was > 100 µM

Given item COC(=O)C(CC(C)C)NC(=O)C(Cc1cnc[nH]1)NC(=O)CNC(=O)C(NC(=O)C(C)NC(=O)C(Cc1c[nH]c2ccccc12)NC(=O)C(CCC(=O)O)NC(=O)C(N)Cc1c(F)c(F)c(F)c(F)c1F)C(C)C (configuration not stated) (H-[Phe(F5)]EWAVGHL-OMe; configuration not given here) , the value recorded as its TGI is > 100 µM
